- studyTarget: UniProtKB Q07869
- Sequence (Q07869 239-466 limits assumed): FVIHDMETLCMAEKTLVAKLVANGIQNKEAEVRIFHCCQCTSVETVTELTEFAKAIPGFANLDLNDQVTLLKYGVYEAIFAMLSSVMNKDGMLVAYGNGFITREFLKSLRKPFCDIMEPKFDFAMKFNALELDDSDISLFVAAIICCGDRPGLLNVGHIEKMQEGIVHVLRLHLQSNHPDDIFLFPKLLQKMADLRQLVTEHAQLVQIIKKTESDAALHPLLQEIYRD
- experimentalProtocol: Activation of transcription of human PPARα (Gal4-PPARα LBD luciferase reporter assay in CHO-K1 cells)
- assayConditions: CHO-K1 cells cotransfected with Gal4 DNA-binding domain/human PPARα ligand-binding domain receptor plasmid, firefly luciferase reporter and renilla internal standard; 20 hours at 37° C.
Examples of compounds with documented EC50 follow.
Just the number please, in nM, no unit attached.

Example entries and their recorded answers appear below.
{"columns": ["compound", "unitOfMeasure", "EC50"],
 "data": [
  ["Cc1nc(-c2ccc(Cl)cc2)sc1COCC1CCCN(c2cccc(C(=O)O)c2)C1 (stereo not shown) [Example 24]", "nM", 1540],
  ["Cc1nc(-c2ccc(Cl)cc2)sc1C(=O)NCC1CCCN(c2ccccc2C(=O)O)C1 (stereo not shown) [Example 18]", "nM", 65],
  ["Cc1nc(-c2ccc(Cl)cc2)sc1COC1CCCN(c2cccc(C(=O)O)c2)C1 (stereo not shown) [Example 25]", "nM", 560]
]}

Note: attention shifts to another entry.
Query: I have this compound here, Cc1nc(-c2ccc(Cl)cc2)sc1C(=O)NCC1CCCN(c2cccc(C(=O)O)c2)C1 (stereo not shown) [Example 19] , and I need its recorded EC50.
Response: 970
